SYSTEM: CYP3A4 (Homo sapiens)
Construct: purchased Sigma-Aldrich
Sequence (P08684 whole entry): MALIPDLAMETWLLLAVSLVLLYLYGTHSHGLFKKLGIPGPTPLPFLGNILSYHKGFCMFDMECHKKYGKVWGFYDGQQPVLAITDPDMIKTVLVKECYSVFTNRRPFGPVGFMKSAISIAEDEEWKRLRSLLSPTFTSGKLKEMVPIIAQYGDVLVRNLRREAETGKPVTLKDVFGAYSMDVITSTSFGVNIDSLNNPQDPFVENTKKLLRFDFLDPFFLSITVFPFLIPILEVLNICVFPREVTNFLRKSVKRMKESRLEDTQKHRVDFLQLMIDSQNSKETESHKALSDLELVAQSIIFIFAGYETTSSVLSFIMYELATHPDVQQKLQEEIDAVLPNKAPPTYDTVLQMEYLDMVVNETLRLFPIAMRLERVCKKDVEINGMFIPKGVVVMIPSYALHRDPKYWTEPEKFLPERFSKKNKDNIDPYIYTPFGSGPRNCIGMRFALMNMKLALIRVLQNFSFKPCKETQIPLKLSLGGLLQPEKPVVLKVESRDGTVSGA
TEST DETAILS: CYP3A4-catalyzed testosterone hydroxylation (CypExpress kit, HPLC)
Type: biochemical
Method: Inhibition of CYP2C19 [47], 3A4 [48], and 2D6 [49] by Q and its conjugates was tested based on our previously reported methods, without modifications. S-mephenytoin and 4-hydroxymephenytoin (CYP2C19 assay), testosterone and 6β-hydroxytestosterone (CYP3A4 assay), as well as dextromethorphan and dextrorphan (CYP2D6 assay) were quantified using the previously described methods, with minor modifications. […]
MEASUREMENT KIND: IC50

Req: So what does the record say about IC50 for COc1cc(-c2oc3cc(O)cc(O)c3c(=O)c2O)ccc1O ?
Resp: > 30 µM

----------
SYSTEM: OATP2B1 (Homo sapiens, UniProt O94956)
Construct: host or cells: A431
TEST DETAILS: OATP2B1-mediated pyranine uptake in A431 cells overexpressing OATP2B1
Assay type: cell-based
CONDITIONS: IC50 for OATP2B1, 20 μM pyranine, 15 min, A431-OATP2B1 cells
MEASUREMENT KIND: IC50
The reply should consist of the numeric value with the unit placed after it.

Req: # get_value(readout='IC50', item= COc1cc(-c2oc3cc(O)cc(O)c3c(=O)c2O)ccc1O )
Resp: 0.82 µM

----------
SYSTEM: OATP2B1 (Homo sapiens)
Construct: host or cells: A431
Sequence (O94956 1-709): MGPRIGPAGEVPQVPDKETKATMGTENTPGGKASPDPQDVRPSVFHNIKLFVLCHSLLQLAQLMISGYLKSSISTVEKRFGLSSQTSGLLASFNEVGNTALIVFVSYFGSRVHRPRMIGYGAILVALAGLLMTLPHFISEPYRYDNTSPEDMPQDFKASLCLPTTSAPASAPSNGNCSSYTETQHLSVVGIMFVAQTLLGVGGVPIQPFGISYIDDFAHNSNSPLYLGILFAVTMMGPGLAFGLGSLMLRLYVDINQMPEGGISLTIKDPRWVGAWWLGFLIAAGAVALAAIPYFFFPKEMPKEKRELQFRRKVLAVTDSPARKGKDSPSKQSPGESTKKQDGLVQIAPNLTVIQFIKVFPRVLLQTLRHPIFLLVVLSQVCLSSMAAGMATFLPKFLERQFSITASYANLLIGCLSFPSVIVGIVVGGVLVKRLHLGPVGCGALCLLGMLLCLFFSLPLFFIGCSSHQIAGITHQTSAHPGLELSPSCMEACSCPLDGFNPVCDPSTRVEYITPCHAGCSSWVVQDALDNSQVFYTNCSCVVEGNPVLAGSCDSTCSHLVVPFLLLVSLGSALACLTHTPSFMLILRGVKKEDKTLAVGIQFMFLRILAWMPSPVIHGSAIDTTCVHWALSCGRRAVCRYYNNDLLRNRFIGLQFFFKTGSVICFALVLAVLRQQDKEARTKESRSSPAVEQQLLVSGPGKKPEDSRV
TEST DETAILS: OATP2B1-mediated pyranine uptake in A431 cells overexpressing OATP2B1
Assay type: cell-based
CONDITIONS: 20 μM pyranine, 15 min
MEASUREMENT KIND: concentration causing statistically significant (p < 0.01) inhibition, OATP2B1 (µM)
Record the value in µM, omitting the unit from your answer.

Some solved cases for reference:
MOLECULE	SYSTEM	UNITS SYMBOL	ENDPOINT VALUE
O=C(O)C1OC(Oc2c(-c3ccc(O)c(O)c3)oc3cc(O)cc(O)c3c2=O)C(O)C(O)C1O (centres unmarked) [Q3G, quercetin-3-glucuronide]	OATP2B1 (Homo sapiens)	µM	3.1
O=c1c(O)c(-c2ccc(O)c(OS(=O)(=O)O)c2)oc2cc(O)cc(O)c12 [Q3′S, quercetin-3′-sulfate]	OATP2B1 (Homo sapiens)	µM	0.3
O=c1c(O)c(-c2ccc(O)c(O)c2)oc2cc(O)cc(O)c12	OATP2B1 (Homo sapiens)	µM	0.3
COc1cc(-c2oc3cc(O)cc(O)c3c(=O)c2O)ccc1O	OATP2B1 (Homo sapiens)	µM	0.6

Turning to the following molecule.
Req: # query: concentration causing statistically significant (p < 0.01) inhibition, OATP2B1 of entry COc1cc(-c2oc3cc(O)cc(O)c3c(=O)c2OC2OC(C(=O)O)C(O)C(O)C2O)ccc1O (centres unmarked) [I3G, isorhamnetin-3-glucuronide]
Resp: 1.6
